Reference for the values: ChEMBL document CHEMBL2412986

Molecular target: Angiotensin-converting enzyme (Oryctolagus cuniculus) (UniProt P12822)
Sequence (P12822 whole entry): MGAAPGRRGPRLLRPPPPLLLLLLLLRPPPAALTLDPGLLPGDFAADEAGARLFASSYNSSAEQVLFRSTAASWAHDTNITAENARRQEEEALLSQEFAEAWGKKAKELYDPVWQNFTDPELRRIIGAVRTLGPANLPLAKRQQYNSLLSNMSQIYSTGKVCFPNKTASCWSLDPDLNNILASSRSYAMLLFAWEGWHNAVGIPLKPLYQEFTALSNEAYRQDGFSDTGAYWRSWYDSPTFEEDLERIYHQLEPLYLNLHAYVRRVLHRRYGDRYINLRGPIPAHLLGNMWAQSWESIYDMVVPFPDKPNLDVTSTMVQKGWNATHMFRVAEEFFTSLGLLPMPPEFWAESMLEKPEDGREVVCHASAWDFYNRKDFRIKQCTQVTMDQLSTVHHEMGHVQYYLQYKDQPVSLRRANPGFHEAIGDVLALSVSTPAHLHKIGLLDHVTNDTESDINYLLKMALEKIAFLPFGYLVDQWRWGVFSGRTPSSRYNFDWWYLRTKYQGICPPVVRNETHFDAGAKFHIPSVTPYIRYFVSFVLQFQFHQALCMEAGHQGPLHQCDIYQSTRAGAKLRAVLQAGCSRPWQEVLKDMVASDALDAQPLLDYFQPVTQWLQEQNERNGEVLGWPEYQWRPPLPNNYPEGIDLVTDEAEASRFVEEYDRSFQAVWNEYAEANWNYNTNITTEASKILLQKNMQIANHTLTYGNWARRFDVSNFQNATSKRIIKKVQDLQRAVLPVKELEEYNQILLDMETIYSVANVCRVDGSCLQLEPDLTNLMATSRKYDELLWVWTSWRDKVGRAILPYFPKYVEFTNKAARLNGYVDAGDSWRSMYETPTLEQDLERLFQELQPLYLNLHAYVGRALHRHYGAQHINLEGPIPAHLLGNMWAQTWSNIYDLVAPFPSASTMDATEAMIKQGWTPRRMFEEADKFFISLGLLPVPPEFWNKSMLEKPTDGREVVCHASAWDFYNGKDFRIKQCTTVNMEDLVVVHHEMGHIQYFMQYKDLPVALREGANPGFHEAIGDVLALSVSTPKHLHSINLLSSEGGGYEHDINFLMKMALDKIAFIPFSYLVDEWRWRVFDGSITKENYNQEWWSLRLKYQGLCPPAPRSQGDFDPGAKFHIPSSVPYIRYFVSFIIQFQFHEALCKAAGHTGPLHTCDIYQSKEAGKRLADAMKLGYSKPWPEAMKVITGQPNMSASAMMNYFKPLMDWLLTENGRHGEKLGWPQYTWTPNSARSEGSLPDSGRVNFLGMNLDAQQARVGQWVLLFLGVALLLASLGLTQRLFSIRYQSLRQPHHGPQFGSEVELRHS
Assay: Inhibition of rabbit lung ACE assessed as hydrolysis of hippuryl-histidyl-leucine to hippuric acid and histidyl-leucine at 1 uM after 30 mins relative to control
Reported inhibition is given for each of the following compounds.

chemical-smiles: O=C1[C@@H]2C[C@@H](O)CN2C(=O)c2ccccc2N1Cc1cc(F)cc(F)c1
unit-of-measurement: %
inhibition: 28

chemical-smiles: O=C1[C@@H]2C[C@@H](O)CN2C(=O)c2ccccc2N1Cc1cccc2c1oc1ccccc12
unit-of-measurement: %
inhibition: 28

chemical-smiles: CC(=O)CN1C(=O)[C@@H]2C[C@@H](O)CN2C(=O)c2ccccc21
unit-of-measurement: %
inhibition: 28

chemical-smiles: O=C1[C@@H]2C[C@@H](O)CN2C(=O)c2ccccc2N1Cc1cccc(Cl)c1
unit-of-measurement: %
inhibition: 28

chemical-smiles: COc1cccc(CN2C(=O)[C@@H]3C[C@@H](O)CN3C(=O)c3ccccc32)c1
unit-of-measurement: %
inhibition: 28

chemical-smiles: CN1C(=O)[C@@H]2C[C@@H](O)CN2C(=O)c2ccccc21
unit-of-measurement: %
inhibition: 28

chemical-smiles: O=C1Nc2ccccc2C(=O)N2C[C@H](O)C[C@@H]12
unit-of-measurement: %
inhibition: 57

chemical-smiles: COc1ccc(CN2C(=O)[C@@H]3C[C@@H](O)CN3C(=O)c3ccccc32)cc1
unit-of-measurement: %
inhibition: 28

chemical-smiles: O=C1[C@@H]2C[C@@H](O)CN2C(=O)c2ccccc2N1Cc1cccc(Br)c1
unit-of-measurement: %
inhibition: 86

chemical-smiles: O=C1[C@@H]2C[C@@H](O)CN2C(=O)c2ccccc2N1Cc1ccc([N+](=O)[O-])c(Cl)c1
unit-of-measurement: %
inhibition: 28

* * *

System: A549
Assay: Cytotoxicity against human A549 cells assessed as cell survival after 24 hrs by MTT assay
Type: cell-based
Conditions: A549, 24 h
Reported IC50 is given for each of the following compounds.

compound: O=C1[C@@H]2C[C@@H](O)CN2C(=O)c2ccccc2N1Cc1ccc(Br)cc1
IC50 / µM: 487
//
compound: O=C1[C@@H]2C[C@@H](O)CN2C(=O)c2ccccc2N1Cc1cc(Br)cs1
IC50 / µM: 361
//
compound: COc1cc(CN2C(=O)[C@@H]3C[C@@H](O)CN3C(=O)c3ccccc32)cc(OC)c1OC
IC50 / µM: 419
//
compound: CCOC(=O)[C@H](CCc1ccccc1)N[C@H]1CCc2ccccc2N(CC(=O)O)C1=O
IC50 / µM: 358
//
compound: O=C1[C@@H]2C[C@@H](O)CN2C(=O)c2ccccc2N1Cc1cccc(Br)c1
IC50 / µM: 400
//
compound: NCCCC[C@H](N[C@@H](CCc1ccccc1)C(=O)O)C(=O)N1CCC[C@H]1C(=O)O [LISINOPRIL ANHYDROUS]
IC50 / µM: 307
//
compound: CCOC(=O)[C@H](CCc1ccccc1)N[C@@H](C)C(=O)N1[C@H](C(=O)O)C[C@@H]2CCC[C@@H]21
IC50 / µM: 392

* * *

Target: Angiotensin-converting enzyme (Oryctolagus cuniculus)
Assay: Inhibition of rabbit lung ACE assessed as hydrolysis of hippuryl-histidyl-leucine to hippuric acid and histidyl-leucine at 1 uM after 30 mins relative to control
readout-name: inhibition (%)

chemical-smiles: O=C1[C@@H]2C[C@@H](O)CN2C(=O)c2ccccc2N1Cc1c(F)c(F)c(F)c(F)c1F
measured: 28

chemical-smiles: O=C1[C@@H]2C[C@@H](O)CN2C(=O)c2ccccc2N1Cc1ccc(Br)cc1
measured: 75

chemical-smiles: O=C1[C@@H]2C[C@@H](O)CN2C(=O)c2ccccc2N1Cc1ccc(Cl)c(F)c1
measured: 28

chemical-smiles: O=C(O)c1ccc(CN2C(=O)[C@@H]3C[C@@H](O)CN3C(=O)c3ccccc32)cc1
measured: 28

chemical-smiles: O=C(CN1C(=O)[C@@H]2C[C@@H](O)CN2C(=O)c2ccccc21)c1ccc(Cl)cc1
measured: 28

chemical-smiles: O=C1[C@@H]2C[C@@H](O)CN2C(=O)c2ccccc2N1Cc1ccc([N+](=O)[O-])cc1
measured: 28

chemical-smiles: CCOC(=O)CN1C(=O)[C@@H]2C[C@@H](O)CN2C(=O)c2ccccc21
measured: 28

chemical-smiles: COC(=O)c1ccc(CN2C(=O)[C@@H]3C[C@@H](O)CN3C(=O)c3ccccc32)cc1
measured: 28

chemical-smiles: O=C1[C@@H]2C[C@@H](O)CN2C(=O)c2ccccc2N1Cc1cc(F)cc(F)c1Cl
measured: 28

chemical-smiles: O=C(CN1C(=O)[C@@H]2C[C@@H](O)CN2C(=O)c2ccccc21)c1ccc(Br)cc1
measured: 28

chemical-smiles: COc1cc(CN2C(=O)[C@@H]3C[C@@H](O)CN3C(=O)c3ccccc32)cc(OC)c1OC
measured: 91

chemical-smiles: Nc1ccc(CN2C(=O)[C@@H]3C[C@@H](O)CN3C(=O)c3ccccc32)cc1
measured: 28

chemical-smiles: O=C1[C@@H]2C[C@@H](O)CN2C(=O)c2ccccc2N1Cc1cc(Br)cs1
measured: 80
